The molecules listed here are annotated with their IC50.
# assayTarget: human recombinant acetylcholinesterase (Homo sapiens)
# Sequence (P22303 32-614): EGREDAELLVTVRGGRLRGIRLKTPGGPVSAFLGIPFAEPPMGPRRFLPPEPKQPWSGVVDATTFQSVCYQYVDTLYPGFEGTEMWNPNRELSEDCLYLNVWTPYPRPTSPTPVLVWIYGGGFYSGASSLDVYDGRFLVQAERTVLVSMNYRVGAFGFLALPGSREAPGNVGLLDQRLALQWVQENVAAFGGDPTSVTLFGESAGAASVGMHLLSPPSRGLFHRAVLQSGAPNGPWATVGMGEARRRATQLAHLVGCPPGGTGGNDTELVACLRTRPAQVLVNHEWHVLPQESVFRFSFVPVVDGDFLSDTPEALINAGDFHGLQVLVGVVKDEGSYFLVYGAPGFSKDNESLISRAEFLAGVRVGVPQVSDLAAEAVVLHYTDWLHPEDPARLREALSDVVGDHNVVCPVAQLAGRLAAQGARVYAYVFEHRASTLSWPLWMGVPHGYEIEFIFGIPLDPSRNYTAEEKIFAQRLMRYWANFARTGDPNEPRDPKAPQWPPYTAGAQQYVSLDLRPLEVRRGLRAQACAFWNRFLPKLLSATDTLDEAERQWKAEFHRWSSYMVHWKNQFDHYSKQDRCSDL
# experimentalDetails: biochemical
# runConditions: human recombinant AChE, 25° C., 30 minutes preincubation, Dixon plot

C[C@@H](c1cccc(OC(=O)N(C)[C@@H](C)Cc2ccccc2)c1)N(C)C [Compound 13, S-riva-d-methamphetamine]
5440 nM

Below: the item to evaluate.
Could you share which IC50 value was measured for C[C@@H](Cc1ccccc1)NC(=O)Oc1cccc([C@H](C)N(C)C)c1 [Compound 20, S-riva-d-amphetamine] ?
449 nM

###

# assayTarget: BuChE (Homo sapiens, UniProt P06276)
# Sequence (P06276 29-602): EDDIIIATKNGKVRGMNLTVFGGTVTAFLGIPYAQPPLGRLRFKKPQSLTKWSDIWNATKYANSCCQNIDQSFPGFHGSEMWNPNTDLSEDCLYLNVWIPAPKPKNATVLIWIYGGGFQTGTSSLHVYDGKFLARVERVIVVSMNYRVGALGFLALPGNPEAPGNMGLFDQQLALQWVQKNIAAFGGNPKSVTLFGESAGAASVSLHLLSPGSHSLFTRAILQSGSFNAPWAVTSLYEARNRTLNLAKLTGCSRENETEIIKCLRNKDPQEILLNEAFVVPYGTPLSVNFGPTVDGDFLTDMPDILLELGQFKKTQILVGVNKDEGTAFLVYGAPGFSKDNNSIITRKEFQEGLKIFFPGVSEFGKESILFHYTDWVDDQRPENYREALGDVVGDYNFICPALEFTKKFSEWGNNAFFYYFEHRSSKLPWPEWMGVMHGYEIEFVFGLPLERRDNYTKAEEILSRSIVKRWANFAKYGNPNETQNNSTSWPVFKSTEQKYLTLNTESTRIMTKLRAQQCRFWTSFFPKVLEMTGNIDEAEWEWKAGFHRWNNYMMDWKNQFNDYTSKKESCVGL
# experimentalDetails: In vitro screening assay, BuChE inhibition
# Assay type: biochemical
# runConditions: 10 μM
Entries and their BuChE I (%) 10 μM values follow.
Answer format: value, then unit.

Sample records with BuChE I (%) 10 μM:
Cc1ccccc1O[C@H](CCN(C)C(=O)Oc1cccc([C@H](C)N(C)C)c1)c1ccccc1
14%
C[C@@H](c1cccc(OC(=O)N[C@H]2C[C@@H]2c2ccccc2)c1)N(C)C (stereo in doubt)
67%
C#CCN(C(=O)Oc1cccc([C@H](C)N(C)C)c1)[C@H](C)Cc1ccccc1
17%
C[C@@H](c1cccc(OC(=O)N(C)CCCN2c3ccccc3CCc3ccccc32)c1)N(C)C
60%

Give BuChE I (%) 10 μM (BuChE (Homo sapiens, UniProt P06276)) of the following compound: C#CCN(C(=O)Oc1cccc([C@@H](C)N(C)C)c1)[C@H](C)Cc1ccccc1
12%

What do you have for C[C@@H](c1cccc(OC(=O)N(C)CC[C@H](Oc2cccc3ccccc23)c2cccs2)c1)N(C)C [Compound 10A, S-riva-duloxetine] ?
36%
